Just for reference, ChEMBL document CHEMBL4680087 is where these values come from.

biological target: Thymidylate kinase (Homo sapiens); assay: Inhibition of GST-tagged human TMPK expressed in Escherichia coli BL21 at 2 uM incubated for 10 mins by luciferase-coupled TMPK assay
Activity calls are given as the source filed them. The rule behind the calls is not given here.
measurement_kind: inhibition

{"compound": "CCOC(=O)N1CCN(C(=O)Cn2sc3ccccc3c2=O)CC1", "inhibition": "70%"}
{"compound": "CC(C)(C)OC(=O)N1CCN(C(=O)COc2nsc3ccccc23)CC1", "inhibition": "inactive"}
{"compound": "CCOC(=O)N1CCN(C(=O)CCCn2sc3ccccc3c2=O)CC1", "inhibition": "7%"}
{"compound": "O=c1c2ccccc2sn1-c1ccc(F)c(Cl)c1", "inhibition": "< 2%"}
{"compound": "[N-]=[N+]=Nc1ccc2c(=O)n(CC(=O)N3CCN(CCOCCOCCOC(=O)CCCC[C@@H]4SC[C@@H]5NC(=O)N[C@@H]54)CC3)sc2c1", "inhibition": "86.9%"}

[ask] Tell me the measured inhibition of Cc1cc(C)c2c(=O)n(CC(=O)N3CCN(C(=O)OC(C)(C)C)CC3)sc2n1 , please.
[reply] 76.3%

[ask] // same read-out, input: Cc1cc(C)c2c(=O)n(CC(=O)N3CCNCC3)sc2n1
[reply] 73.4%

[ask] // same read-out, input: CC(C)(C)OC(=O)N1CCN(C(=O)Cn2sc3ncccc3c2=O)CC1
[reply] 91.3%
